// values below are reported TGI
test system: K-562 leukemia; experiment: NCI tumour cell line growth inhibition, 48 h

Consider the reported TGI for these compounds:
> print(dat)
                                   compound    result
1  COc1cc(NP(=O)(Oc2ccccc2)Oc2ccccc2)ccc1Nc1c2ccccc2nc2c1[nH]c1ccccc12   6.71 µM
2  COc1ccc(NC(C)=O)cc1C1CCC(=O)N1 (centres undefined)  > 100 µM

The compound listed as CCOC(=O)C1=C(Nc2ccc(Cl)cc2Cl)OC/C1=N\NS(=O)(=O)c1ccc(C)cc1 shows TGI equal to > 100 µM

The compound listed as COc1ccc(/C=C2\CCCCCC2=O)cc1 shows TGI equal to > 100 µM

* * *

system: BT-549 breast; experiment: NCI tumour cell line growth inhibition, 48 h
OBSERVED PROPERTY: TGI

> print(dat)
                                   compound    result
1     N#Cc1c(Cl)/c(=C/O)c(=O)n2c1nc1ccccc12  > 100 µM
2  O=CN1N=C(c2ccc(Cl)cc2)CC1c1cccc(Nc2ccnc3cc(Cl)ccc23)c1 (stereo not drawn)   15.4 µM
3  COc1ccc(-c2c(CN3CCOCC3)sc3nc4ccccc4n23)cc1  > 100 µM
4  [N-]=[NH+]CC(=O)OC(COCc1ccccc1)COCc1ccccc1  > 100 µM

Now take the following compound into account.
CCCCC(=O)NC1(c2cc3ccccc3s2)CCCCC1 on BT-549 breast gives TGI = > 100 µM

* * *

The compounds below have reported GI50 for MDA-MB-435.

> print(dat)
                                   compound   result
1  COc1cc2cc(C(=O)Nc3cc(N)c4ccccc4c3CCCl)[nH]c2c(OC)c1OC  48.3 nM

O=C(Nc1ccc(F)cc1F)c1cc(Br)ccc1O on MDA-MB-435 gives GI50 = 2820 nM

COc1ccc(-c2nc3ncccn3c2/C=C/C(=O)c2cc(OC)c(OC)c(OC)c2)cc1 on MDA-MB-435 gives GI50 = 2280 nM

NC(=N\N=C/c1cccc([N+](=O)[O-])c1)/C(N)=N\N=C/c1cccc([N+](=O)[O-])c1 on MDA-MB-435 gives GI50 = > 100000 nM

* * *

tested on: LXFL 529 NSCLC; test: NCI tumour cell line growth inhibition, 48 h
OBSERVED PROPERTY: TGI

Consider the reported TGI for these compounds:
> print(dat)
                                   compound  observed.property    result
1  O=C(c1ccco1)N(C(=S)N1CCN(c2ccccn2)CC1)C1CCCCC1                TGI  > 100 µM
2  Cc1cc(C)nc(NS(=O)(=O)c2ccc(Nc3c4ccc(Cl)cc4nc4c(C(=O)Nc5ccc(S(=O)(=O)N=C(N)N)cc5)cccc34)cc2)n1                TGI  > 100 µM
3  C#C[C@]1(O)CCC2C3CCc4cc(Oc5nc(F)nc(-c6c7cc8ccccc8cc7c7n6CCS7)n5)ccc4C3CCC21C (stereo not given in full)                TGI  > 100 µM
4  COc1cc(C(=O)C/C(CCC(=O)Nc2ccc(Cl)cc2C)=N/NC(=O)C(N)=O)ccc1O                TGI  > 100 µM
5  CCOC(=O)C1=C(Nc2ccc(Cl)cc2Cl)OC/C1=N\NS(=O)(=O)c1ccc(C)cc1                TGI  > 100 µM
6  CCCCc1ccc(-n2c3nc(=O)n(C)c(=O)c-3nc3ccccc32)cc1                TGI   30.4 µM
7  CC1=CC(=O)C(=O)C2=C1OC1(C2)C(C)CCC2C3(C)CCC(O)C(C)(C)C3CCC21C (stereo not given)                TGI   33.6 µM
8      COC(=O)C12CC3CC(C1)CC(C(=O)OC)(C3)C2                TGI  > 100 µM

The compound listed as COC(=O)C1[C@@H](C(=O)OC)C12C=Cc1ccccc1C=C2 (stereo not given in full) shows TGI equal to > 100 µM

The compound listed as O=C(O)CC12C3C4C5C3C1C5C42 (stereo not given) shows TGI equal to > 100 µM

The compound listed as CCCN1CN(C(C(=O)N[C@@H]2C(=O)N3C(C(=O)O)=C(C)CSC23)c2ccc(O)cc2)CSC1=S (stereo not given in full) shows TGI equal to > 100 µM

The compound listed as COc1cc(C=Nc2ccc(C(C)C)cc2)cc(OC)c1OC shows TGI equal to > 100 µM
